measurement protocol: protein stability index of a GFP-peptide fusion (yeast GPS) (PSI 1-4); higher = more stable; sorted into four equal gates, so the index is relative within each strain
condition label: ubr1∆
parameter measured: protein stability index

// sample EISRLKTSLSIKVENLN [SMC2] , its protein stability index was 2.56

====

Below: a set of entries, each annotated with reported protein stability index.
measurement protocol: protein stability index of a GFP-peptide fusion (yeast GPS) (PSI 1-4); higher = more stable; sorted into four equal gates, so the index is relative within each strain
condition label: doa10∆

ARCYRYQKNKPYPKSRY [RPL10] = 2.3

Next, consider the following sequence.
// sample NFRILKSFTNDKIPLNY [SRB5] , its protein stability index was 2.94
